Data credit: paper PMC10875708

Quick reference: ratio to parent of the listed items.
B1: Stearoyl-CoA desaturase (SCD1) [human (endogenous in HCT116)] / Sulfotransferase family 2B member 1 (SULT2B1) [human (endogenous in HCT116)] (parent complex)
chain 1: MPAHLLQDDISSSYTTTTTITAPPSRVLQNGGDKLETMPLYLEDDIRPDIKDDIYDPTYKDKEGPSPKVEYVWRNIILMSLLHLGALYGITLIPTCKFYTWLWGVFYYFVSALGITAGAHRLWSHRSYKARLPLRLFLIIANTMAFQNDVYEWARDHRAHHKFSETHADPHNSRRGFFFSHVGWLLVRKHPAVKEKGSTLDLSDLEAEKLVMFQRRYYKPGLLMMCFILPTLVPWYFWGETFQNSVFVATFLRYAVVLNATWLVNSAAHLFGYRPYDKNISPRENILVSLGAVGEGFHNYHHSFPYDYSASEYRWHINFTTFFIDCMAALGLAYDRKKVSKAAILARIKRTGDGNYKSG
chain 2: MDGPAEPQIPGLWDTYEDDISEISQKLPGEYFRYKGVPFPVGLYSLESISLAENTQDVRDDDIFIITYPKSGTTWMIEIICLILKEGDPSWIRSVPIWERAPWCETIVGAFSLPDQYSPRLMSSHLPIQIFTKAFFSSKAKVIYMGRNPRDVVVSLYHYSKIAGQLKDPGTPDQFLRDFLKGEVQFGSWFDHIKGWLRMKGKDNFLFITYEELQQDLQGSVERICGFLGRPLGKEALGSVVAHSTFSAMKANTMSNYTLLPPSLLDHRRGAFLRKGVCGDWKNHFTVAQSEAFDRAYRKQMRGMPTFPWDEDPEEDGSPDPEPSPEPEPKPSLEPNTSLEREPRPNSSPSPSPGQASETPHPRPS

Variants of: B1
test method notes: co-IP (IP: SCD1, IB: SULT2B1), band quantification; HCT116 cells; parent: 1; read off a plot
observable: ratio to parent

INSERT INTO measurements (mutation_descriptor, observable, val) VALUES
  ('chain 1 S80E', 'ratio to parent', '~0.5'),
  ('chain 1 F178A', 'ratio to parent', '~2.4'),
  ('chain 1 H83M', 'ratio to parent', '~1.2'),
  ('chain 1 S80F', 'ratio to parent', '~0.4'),
  ('chain 1 F178G', 'ratio to parent', '~2.6'),
  ('chain 1 S80R', 'ratio to parent', '~0.35');
